Measured values drawn from ChEMBL document CHEMBL3813683 for this set.

- Test system: MCF7
- PROCEDURE DETAILS: Cytotoxicity against human MCF7 cells after 36 hrs by MTT assay
- Assay type: functional, cell-based
- MEASUREMENT PARAMETERS: MCF7, 36 h
Would you mind telling me the reported pIC50 of each entry?
// pIC50 is dimensionless: -log10 of concentration (M)

For reference, reported pIC50 for COc1cc(C2c3cc4c(cc3[C@H](OC(=O)C(C)N3C(=O)C5C6CCC(O6)C5C3=O)[C@H]3COC(=O)[C@H]23)OCO4)cc(OC)c1OC (stereo partly specified) stands at 5.76

The measured pIC50 associated with COc1cc(C2c3cc4c(cc3[C@H](OC(=O)C(Cc3ccccc3)N3C(=O)c5ccccc5C3=O)[C@H]3COC(=O)[C@H]23)OCO4)cc(OC)c1OC (stereo partly specified) reads 5.19

Briefly, pIC50 measured for COc1cc(C2c3cc4c(cc3[C@H](OC(=O)C(C)N3C(=O)c5ccccc5C3=O)[C@H]3COC(=O)[C@H]23)OCO4)cc(OC)c1OC (stereo partly specified) : 4.77

Just so you know, measured pIC50 for COc1cc(C2c3cc4c(cc3[C@H](OC(=O)[C@@H](Cc3ccccc3)N3C(=O)C5C6CCC(O6)C5C3=O)[C@H]3COC(=O)[C@H]23)OCO4)cc(OC)c1OC (stereo partly specified) came out at 5.56

Query COc1cc(C2c3cc4c(cc3[C@H](OC(=O)[C@H](Cc3ccccc3)N3C(=O)c5ccccc5C3=O)[C@H]3COC(=O)[C@H]23)OCO4)cc(OC)c1OC (stereo partly specified) yields pIC50 of 5.00

Entry COc1cc(C2c3cc4c(cc3[C@H](OC(=O)[C@@H](Cc3ccccc3)N3C(=O)C5CCCCC5C3=O)[C@H]3COC(=O)[C@H]23)OCO4)cc(OC)c1OC (stereo partly specified) — recorded pIC50 = 5.43
